# target-desc: hα2B receptor (Homo sapiens)
# Construct: expressed in transfected cells
# Sequence (P18089 whole entry): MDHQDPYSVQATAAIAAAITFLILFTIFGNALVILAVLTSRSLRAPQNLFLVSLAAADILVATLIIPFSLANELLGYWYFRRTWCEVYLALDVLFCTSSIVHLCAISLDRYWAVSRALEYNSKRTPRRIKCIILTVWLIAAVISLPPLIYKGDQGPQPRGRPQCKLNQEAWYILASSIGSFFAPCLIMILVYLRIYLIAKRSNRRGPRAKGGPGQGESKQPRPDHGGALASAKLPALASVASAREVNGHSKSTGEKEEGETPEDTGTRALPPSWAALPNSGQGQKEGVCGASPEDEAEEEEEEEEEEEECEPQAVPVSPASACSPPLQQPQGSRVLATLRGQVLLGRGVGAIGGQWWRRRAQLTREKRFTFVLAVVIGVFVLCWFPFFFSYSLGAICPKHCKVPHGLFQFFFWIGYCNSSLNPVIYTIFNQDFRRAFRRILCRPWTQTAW
# procedure-text: Radioligand binding experiment for hα2B receptor ([3H]-raulwolscine)
# conditions-used: membranes of CHO cells expressing human α2B receptor; [3H]raulwolscine 1 nM
Decide by hα2B pIC50: equal to or exceeding 8 means satisfied, less means not satisfied.

Worked examples follow.
{"compound": "CCOC(=O)N1CC2C(=NOC2CN2CCN(CC=Cc3ccccc3)CC2)c2ccccc21 (stereo not shown)", "target-desc": "hα2B receptor (Homo sapiens)", "qualitative-label": "not satisfied"}
{"compound": "CC(=Cc1ccccc1)CN1CCN(CC2ON=C3c4ccccc4NCC32)CC1 (stereo not shown)", "target-desc": "hα2B receptor (Homo sapiens)", "qualitative-label": "satisfied"}
{"compound": "COc1cc2c(cc1OC(C)=O)C1=NOC(CN3CCN(CC(C)=Cc4ccccc4)CC3)C1CO2 (stereo not shown)", "target-desc": "hα2B receptor (Homo sapiens)", "qualitative-label": "satisfied"}

Evaluate COc1cc2c(cc1OC)C1=NOC(CN(C=O)C3CCN(Cc4ccc5ccccc5c4)CC3)C1CO2 (racemic) : hα2B pIC50 at minimum 8?
not satisfied

Item O=C(N1CC2C(=NOC2CN2CCN(CC=Cc3ccccc3)CC2)c2ccccc21)C(F)(F)F (stereo not shown) with hα2B pIC50 of 8 or above?
not satisfied

* * *

# target-desc: hα2C receptor (Homo sapiens)
# Construct: expressed in transfected cells
# Sequence (P18825 1-462): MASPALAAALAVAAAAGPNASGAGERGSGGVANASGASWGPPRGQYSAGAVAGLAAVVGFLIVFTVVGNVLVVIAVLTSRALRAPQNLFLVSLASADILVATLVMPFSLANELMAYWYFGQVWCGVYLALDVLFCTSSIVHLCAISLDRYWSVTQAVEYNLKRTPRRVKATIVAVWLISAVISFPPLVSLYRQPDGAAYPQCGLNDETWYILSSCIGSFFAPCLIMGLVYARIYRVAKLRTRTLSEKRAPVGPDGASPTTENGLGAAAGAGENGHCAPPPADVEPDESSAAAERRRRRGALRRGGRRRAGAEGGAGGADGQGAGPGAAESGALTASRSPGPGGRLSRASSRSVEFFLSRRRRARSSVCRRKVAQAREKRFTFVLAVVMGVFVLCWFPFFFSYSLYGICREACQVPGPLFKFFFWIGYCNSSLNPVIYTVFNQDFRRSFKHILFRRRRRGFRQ
# procedure-text: Radioligand binding experiment for hα2C receptor ([3H]-raulwolscine)
# conditions-used: membranes of CHO cells expressing human α2C receptor; [3H]raulwolscine 1 nM; read-out: hα2C pIC50 (converted)
# Method: The interaction of the compounds of Formula (I) with hα2-receptors and h5-HT-transporters was assessed in in vitro radioligand binding experiments. […] When equilibrium of binding is reached, the receptor bound radioactivity is separated from the non-bound radioactivity, and the receptor- or transporter-bound activity is counted. The interaction of the test compounds with the receptor is assessed in competition binding experiments. […]
Decide using IC50 alone. Strictly below 40 nM: 1.0. Equal to or above 40 nM: 0.0.

Criterion: IC50 strictly below 40 nM. Is it met by COc1cc2c(cc1OC(C)=O)OCC1C2=NOC1CN1CCN(Cc2ccc3ccccc3c2)CC1 (stereo not drawn) ?
1.0

* * *

# target-desc: hα2A receptor (Homo sapiens, UniProt P08913)
# Construct: expressed in transfected cells
# Sequence (P08913 whole entry): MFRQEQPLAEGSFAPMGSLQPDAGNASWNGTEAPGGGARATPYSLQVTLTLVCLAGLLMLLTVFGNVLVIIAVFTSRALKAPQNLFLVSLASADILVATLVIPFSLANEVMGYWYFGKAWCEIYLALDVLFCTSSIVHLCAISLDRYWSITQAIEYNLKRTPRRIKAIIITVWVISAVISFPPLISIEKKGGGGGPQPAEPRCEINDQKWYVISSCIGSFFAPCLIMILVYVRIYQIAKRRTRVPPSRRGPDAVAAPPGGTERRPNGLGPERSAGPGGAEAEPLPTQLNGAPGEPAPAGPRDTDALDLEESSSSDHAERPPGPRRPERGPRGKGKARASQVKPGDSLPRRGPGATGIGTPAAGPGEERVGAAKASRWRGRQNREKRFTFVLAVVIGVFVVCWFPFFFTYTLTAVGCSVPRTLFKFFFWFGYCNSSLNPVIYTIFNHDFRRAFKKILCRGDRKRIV
# procedure-text: Radioligand binding experiment for hα2A receptor ([3H]-raulwolscine)
# conditions-used: membranes of CHO cells expressing human α2A receptor; [3H]raulwolscine 1 nM
Quick reference: hα2A pIC50 of the listed items.
Give your answer as a number; write no unit.

{"compound": "COc1cc2c(cc1OC(C)=O)C1=NOC(CN3CCN(CC(C)=Cc4ccccc4)CC3)C1CO2 (stereo not drawn)", "hα2A pIC50": 7.52}
{"compound": "COc1cc2c(cc1OC)C1=NOC(CN(C=O)C3CCN(Cc4ccc5ccccc5c4)CC3)C1CO2 (racemic)", "hα2A pIC50": 7.66}

Then there is this compound:
hα2A pIC50 reported for this compound COc1cc2c(cc1OS(C)(=O)=O)OCC1C2=NOC1CN1CCN(CC(C)=Cc2ccccc2)CC1 (single isomer, unassigned) : 8.65
